target of assay: Delta-type opioid receptor (Rattus norvegicus)
method summary: Binding affinity against Opioid receptor delta 1 from rat brain membranes using [3H]DADLE
pKi: −log10 of the molar value.
Think of 8 as a floor: if pKi stands on it or above, it is y; beneath it, n.

Quick check, pKi >= 8? C=C(N)NCCCC(=O)NC1CC2CC(c3cccc(O)c3)(C1)C(C)CN2CCCc1ccccc1 (stereo not given)
n

Then this compound: Oc1ccc2c3c1O[C@H]1c4nc(-c5ccccc5)ccc4C[C@@]4(O)C(C2)N(CC2CC2)CCC314 (stereo not given in full)
y

Also check CN1CCC23c4c5ccc(O)c4O[C@H]2c2ncc(-c4ccc(Cl)cc4Cl)cc2C[C@H]3C1C5 (stereo not given in full)
y

Then Oc1ccc2c3c1O[C@H]1c4ncccc4C[C@@]4(O)C(C2)N(CC2CC2)CCC314 (stereo not given in full) ?
y

Let us now turn to C=C(C)CN1CCC23c4c5ccc(O)c4O[C@H]2C(=O)/C(=C\c2ccccc2)C[C@@]3(O)C1C5 (stereo not given in full)
n

Try this compound next: COc1ccc2c(c1O)[C@]13CCN(C)C(C2)[C@]1(O)CC1c2ccccc2NC1C3 (stereo not given in full)
n

Now consider CN1CCC23c4c5ccc(O)c4O[C@H]2c2ncc(-c4ccccc4)cc2C[C@H]3C1C5 (stereo not given in full) and answer again.
y

// same read-out, input: "Oc1ccc2c3c1O[C@@H]1c4[nH]c5cccc(-c6ccccc6)c5c4C[C@@]4(O)[C@@H](C2)N(CC2CC2)CC[C@]314"
n

Repeat for the following compound: "CCN1CC[C@]23c4c5ccc(O)c4O[C@@H]2c2[nH]c4ccccc4c2C[C@@]3(O)[C@H]1C5"
y

Same question for "Oc1ccc2c3c1O[C@@H]1c4[nH]c5ccc(/C=C/c6ccccn6)cc5c4C[C@@]4(O)[C@@H](C2)N(CC2CC2)CC[C@]314" please.
y

Entry to check: "Oc1ccc2c3c1O[C@@H]1c4[nH]c5cccc(Oc6ccccc6)c5c4C[C@@]4(O)[C@@H](C2)N(CC2CC2)CC[C@]314"
n

---

target of assay: Delta-type opioid receptor (Rattus norvegicus, UniProt P33533)
Sequence (P33533 whole entry): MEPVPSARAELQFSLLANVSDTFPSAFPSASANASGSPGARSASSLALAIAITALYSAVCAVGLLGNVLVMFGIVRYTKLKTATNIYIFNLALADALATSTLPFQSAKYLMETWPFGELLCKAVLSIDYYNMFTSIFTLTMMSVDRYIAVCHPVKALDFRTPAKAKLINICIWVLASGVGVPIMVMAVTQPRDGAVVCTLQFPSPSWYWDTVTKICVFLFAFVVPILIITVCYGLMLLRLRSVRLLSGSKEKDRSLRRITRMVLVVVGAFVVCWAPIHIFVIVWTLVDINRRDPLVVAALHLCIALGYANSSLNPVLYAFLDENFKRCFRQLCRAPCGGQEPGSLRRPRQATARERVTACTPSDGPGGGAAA
method summary: Binding affinity against Opioid receptor delta 1 from rat brain membranes using [3H]DADLE
quantity kind: log10(Ki) (log10 of the value in nM)
Record value = log10 of Ki given in nM.

Suppose we examine the compound "Oc1ccc2c3c1O[C@@H]1c4[nH]c5ccc(Oc6ccccc6)cc5c4C[C@@]4(O)[C@@H](C2)N(CC2CC2)CC[C@]314" ; what log10(Ki) value has been reported?
1.25

Same for O=C1CC[C@@]2(OCCCc3ccccc3)C3Cc4cccc5c4C2(CCN3CC2CC2)C1O5 (stereo partly drawn)
1.66

// query: CN1CCC23c4c5ccc(O)c4O[C@H]2c2ncc(-c4ccc(Cl)cc4)cc2C[C@H]3C1C5 (stereo partly drawn)
0.64

// next record CN1CCC23c4c5ccc(O)c4O[C@H]2c2ncc(-c4ccccc4)cc2C[C@@]3(O)C1C5 (stereo partly drawn)
0.46

Queued: CCCCOc1cccc2c1C13CCN(CC4CC4)C(C2)[C@]1(OCCCc1ccccc1)CCC(=O)C3 (stereo partly drawn)
2.37

What about CCCCCCOc1cccc2c1C13CCN(CC4CC4)C(C2)[C@]1(OC)CCC(=O)C3 (stereo partly drawn) ?
3.07

Can you handle CN1CCC23c4c5ccc(O)c4O[C@H]2c2ncc(-c4ccc(Br)cc4)cc2C[C@@]3(O)C1C5 (stereo partly drawn) next?
0.60

// repeat for O=C1CC[C@@]2(OCCCc3ccccc3)C3Cc4cccc(O)c4C2(CCN3CC2CC2)C1 (stereo partly drawn) and report
0.70
